Reference source: ChEMBL document CHEMBL1130994

Test system: Providencia rettgeri
method: Compound was evaluated for inhibitory activity against C24 Providencia rettgeri
Format: functional
Would you mind telling me the reported MIC of each entry?
One number for each entry, in µM.

| compound-string | experimental-system | experimental-endpoint | number |
| --- | --- | --- | --- |
| N[C@@H](C(=O)N[C@@H]1C(=O)N2C(C(=O)O)=C(C(F)(F)F)CC[C@H]12)c1ccccc1 | Providencia rettgeri | MIC | 8 |

Batch: MIC for all items listed.
1. Nc1ccc([C@@H](N)C(=O)N[C@@H]2C(=O)N3C(C(=O)O)=C(C(F)(F)F)CC[C@H]23)cc1
2. CS(=O)(=O)Nc1cccc([C@@H](N)C(=O)N[C@@H]2C(=O)N3C(C(=O)O)=C(C(F)(F)F)CC[C@H]23)c1
3. N[C@@H](C(=O)N[C@@H]1C(=O)N2C(C(=O)O)=C(C(F)(F)F)CC[C@H]12)c1cccc(F)c1
4. N[C@@H](C(=O)N[C@@H]1C(=O)N2C(C(=O)O)=C(C(F)(F)F)CC[C@H]12)c1cccc(C(F)(F)F)c1
5. CCS(=O)(=O)Nc1cccc([C@@H](N)C(=O)N[C@@H]2C(=O)N3C(C(=O)O)=C(C(F)(F)F)CC[C@H]23)c1

Completion:
[16, 16, 16, 64, 32]

====

Test system: Klebsiella pneumoniae
method: Compound was evaluated for inhibitory activity against X26 Klebsiella pneumoniae
Type: functional
experimental-endpoint: MIC (µM)
Answers are plain numbers, in µM.

Below: 2 compounds and their reported MIC.
| compound-string | experimental-endpoint | number |
| --- | --- | --- |
| N[C@@H](C(=O)N[C@@H]1C(=O)N2C(C(=O)O)=C(C(F)(F)F)CC[C@H]12)c1ccc(O)c(Cl)c1 | MIC | 0.13 |
| N[C@@H](C(=O)N[C@@H]1C(=O)N2C(C(=O)O)=C(C(F)(F)F)CC[C@H]12)c1ccccc1 | MIC | 0.25 |

Return reported MIC values for all items listed beneath this line.
1. N[C@@H](C(=O)N[C@@H]1C(=O)N2C(C(=O)O)=C(C(F)(F)F)CC[C@H]12)c1ccc(F)cc1
2. N[C@@H](C(=O)N[C@@H]1C(=O)N2C(C(=O)O)=C(C(F)(F)F)CC[C@H]12)c1cccc(Br)c1

Completion:
[0.5, 0.25]

====

Tested on: Klebsiella pneumoniae
method: Compound was evaluated for inhibitory activity against X26 Klebsiella pneumoniae
Type: functional
experimental-endpoint: MIC (µM)
One number for each entry, in µM.

| compound-string | unit-abbreviation | MIC |
| --- | --- | --- |
| Cc1ccc([C@@H](N)C(=O)N[C@@H]2C(=O)N3C(C(=O)O)=C(C(F)(F)F)CC[C@H]23)cc1 | µM | 0.5 |
| N[C@@H](C(=O)N[C@@H]1C(=O)N2C(C(=O)O)=C(C(F)(F)F)CC[C@H]12)c1cccc(F)c1 | µM | 2 |

Now look at this one.
Prompt: Look at this compound and give its reported MIC. `N[C@@H](C(=O)N[C@@H]1C(=O)N2C(C(=O)O)=C(C(F)(F)F)CC[C@H]12)c1cccc(C(F)(F)F)c1`
Completion: 1

====

Tested on: Haemophilus influenzae
method: Compound was evaluated for inhibitory activity against C.L Haemophilus influenzae ampicillin sensitive
Format: functional
I'd appreciate it if you could supply MIC values for the items below.
One number for each entry, in µM.

Examples with their reported MIC follow.
| compound-string | MIC (µM) |
| --- | --- |
| N[C@@H](C(=O)N[C@@H]1C(=O)N2C(C(=O)O)=C(C(F)(F)F)CC[C@H]12)c1ccccc1 | 1 |
| N[C@@H](C(=O)N[C@@H]1C(=O)N2C(C(=O)O)=C(C(F)(F)F)CC[C@H]12)c1ccc(F)cc1 | 0.5 |
| Cc1ccc([C@@H](N)C(=O)N[C@@H]2C(=O)N3C(C(=O)O)=C(C(F)(F)F)CC[C@H]23)cc1 | 2 |

List reported MIC for each of these compounds:
1. N[C@@H](C(=O)N[C@@H]1C(=O)N2C(C(=O)O)=C(C(F)(F)F)CC[C@H]12)c1cccc(C(F)(F)F)c1
2. Nc1ccc([C@@H](N)C(=O)N[C@@H]2C(=O)N3C(C(=O)O)=C(C(F)(F)F)CC[C@H]23)cc1
3. CS(=O)(=O)Nc1cccc([C@@H](N)C(=O)N[C@@H]2C(=O)N3C(C(=O)O)=C(C(F)(F)F)CC[C@H]23)c1

Completion:
[1, 1, 2]

Prompt: # returns recorded MIC (system: Haemophilus influenzae) for `Cc1cccc([C@@H](N)C(=O)N[C@@H]2C(=O)N3C(C(=O)O)=C(C(F)(F)F)CC[C@H]23)c1`
Completion: 1
